molecular target: PLA2 (Homo sapiens); construct: The enzyme is isolated from human platelets; from tissue; host or cells: human platelets; assay: PLA2 Inhibition Assay (14C-oleate labeled E. coli membrane substrate); type: biochemical; conditions: 100 μM; PLA2 from human platelets; pH 7, 37° C.
Could you please report measured inhibition at 100 µM for the items listed next?
Answers are plain numbers, in %.

Here's what some known entries look like.
Compound: CC(C)(C)c1ccc(-c2c(OCc3ccc4c(c3)C(C)(C)CCC4(C)C)cccc2C(=O)O)cc1 [Structure 14o]
Recorded Metric: inhibition at 100 µM
Test Value: 99

Compound: CCCCCOc1ccc(COc2cccc(CC(=O)O)c2-c2cccc(C(=O)O)c2)cc1OCCCCC [Structure 30a]
Recorded Metric: inhibition at 100 µM
Test Value: 96

Compound: CC1(C)CCC(C)(C)c2cc(COc3cccc(CC(=O)O)c3-c3ccccc3)ccc21 [Structure 30e]
Recorded Metric: inhibition at 100 µM
Test Value: 59

Go through the list and state inhibition at 100 µM for each entry.
1. CC1(C)CCC(C)(C)c2cc(COc3cccc(C(=O)O)c3-c3cccc(CC(=O)O)c3)ccc21 [Structure 14q]
2. CC1(C)CCC(C)(C)c2cc(COc3cccc(CC(=O)O)c3-c3cccc(C(=O)O)c3)ccc21 [Structure 30f]
3. CCCCCOc1ccc(COc2cccc(C(=O)O)c2-c2cccc(C(F)(F)F)c2)cc1OCCCCC [Structure 14j]

1. 72
2. 80
3. 98

* * *

target: PLA2 (Homo sapiens, UniProt P14555); construct: The enzyme is isolated from human platelets; from tissue; host or cells: human platelets; experiment: PLA2 Inhibition Assay (14C-oleate labeled E. coli membrane substrate); assay type: biochemical; settings: 100 μM; PLA2 from human platelets; pH 7, 37° C.
Sequence (P14555 21-144): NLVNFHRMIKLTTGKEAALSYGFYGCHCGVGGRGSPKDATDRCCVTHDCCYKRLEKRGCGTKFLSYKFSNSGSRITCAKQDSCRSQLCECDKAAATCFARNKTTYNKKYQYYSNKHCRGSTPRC
Recorded Metric: inhibition at 100 µM (%)
Numbers only, in %.

Here's what some known entries look like.
Compound: CC(C)=CCOc1ccc(COc2cccc(/C=C/C(=O)O)c2-c2cccc(C(=O)O)c2)cc1OCC=C(C)C [Structure 39a]
Assayed System: PLA2 (Homo sapiens, UniProt P14555)
Recorded Metric: inhibition at 100 µM
Test Value: 73
//
Compound: C/C(=C\c1cccc(C(=O)O)c1-c1cccc(C(=O)O)c1)c1ccc2c(c1)C(C)(C)CCC2(C)C
Assayed System: PLA2 (Homo sapiens, UniProt P14555)
Recorded Metric: inhibition at 100 µM
Test Value: 80
//
Compound: COc1cc(COc2cccc(C(=O)O)c2-c2ccccc2)ccc1C12CC3CC(CC(C3)C1)C2 [Structure 14g]
Assayed System: PLA2 (Homo sapiens, UniProt P14555)
Recorded Metric: inhibition at 100 µM
Test Value: 44
//
Compound: O=C(O)Cc1cccc(OCc2ccc(OC3CCCC3)c(OC3CCCC3)c2)c1-c1cccc(C(=O)O)c1 [Structure 30b]
Assayed System: PLA2 (Homo sapiens, UniProt P14555)
Recorded Metric: inhibition at 100 µM
Test Value: 79
//
Compound: CC(C)=CCOc1ccc(COc2cccc(CCC(=O)O)c2-c2cccc(C(=O)O)c2)cc1OCC=C(C)C [Structure 37a]
Assayed System: PLA2 (Homo sapiens, UniProt P14555)
Recorded Metric: inhibition at 100 µM
Test Value: 55
//
Compound: CCCCCOc1ccc(COc2cccc(C(=O)O)c2-c2ccccc2)cc1OCCCCC [Structure 14i]
Assayed System: PLA2 (Homo sapiens, UniProt P14555)
Recorded Metric: inhibition at 100 µM
Test Value: 99

Looking for the measured inhibition at 100 µM of CCCCCOc1ccc(COc2cccc(C(=O)O)c2-c2ccccc2)cc1O [Structure 14e] , can you help?
34

Origin of values: patent US5391817A
